Measured z-score accompanies every entry in the list below.
# experiment: plasmodial surface anion channel blockers, osmotic lysis – cell-based, P. falciparum Indochina, OD700, 18 h, primary screen (AID 1157)
# run conditions: P. falciparum Indochina infected erythrocytes, osmotic lysis OD700, 18 h; higher = more signal, called active from +8 up or from −8 down
No unit in the answer, only the number.

INSERT INTO measurements (compound, observed_result) VALUES
  ('C=CCC(OC(C)=O)[C@@H]1[C@@H](N(Cc2cccc3ccccc23)C(=O)Cc2ccc(OC)cc2)c2cc(OCCCO)ccc2N1C(=O)c1ccc2ccccc2c1 (some centres undefined)', -0.691),
  ('O=C1c2ccccc2[C@@]2(Cc3ccccc3N(Cc3ccccc3)C2=O)[C@H](c2ccc(CO)cc2)N1Cc1ccccc1Cl', 0.18),
  ('C=CCN1C(=O)[C@@]2(O[C@@H](CCn3cc([C@H](O)c4ccccc4)nn3)[C@H]([Si](C)(C)c3ccc(OC)cc3)[C@H]2C)c2cc(N3C(=O)c4cccc5cccc3c45)ccc21', 1.31),
  ('COCCOC(=O)N1C(=O)[C@@]2(c3cc(C#CCC(C(=O)OC)C(=O)OC)ccc31)[C@H](C(=O)Nc1nc3ccccc3s1)[C@H]1C(=O)O[C@H](c3ccccc3)[C@H](c3ccccc3)N1[C@@H]2c1ccc(O)cc1', 0.751);

[ask] Could you share which z-score value was measured for CC(C)C(CO)N1C(=O)[C@@H]2C3C(=O)OCCC/C=C\[C@H]3OC23C=CCN(Cc2ccccc2)C(=O)[C@@H]13 (some centres undefined) ?
[reply] 0.503

[ask] # input compound: NC(=O)N1C(=O)C2C(C1=O)C1C=C(CCCO)C2C(C2CC2)N1Cc1sc2ccccc2c1Cl (centres undefined) ; wanted: its z-score
[reply] 1.07
